Test system: cocklebur (Xanthium strumarium)
Experiment: Preemergence herbicidal activity, cocklebur
Format: in vivo
Conditions: 8.8 g/Ha, soil spray, visual after 3 weeks; 0 no injury, 100 complete kill or no germination
Give measured XANST preemergence injury score 0-100 for each item. Keep answers brief.
Express the reported value numerically, then name its unit.

Lab note: record XANST preemergence injury score 0-100 of `COc1cc(OC)n2nc(NS(=O)(=O)c3c(OC)csc3C)nc2n1` tested on cocklebur (Xanthium strumarium).
70%

Lab note: record XANST preemergence injury score 0-100 of `COc1csc(Cl)c1S(=O)(=O)Nc1nc2c(C)cnc(OC)n2n1` tested on cocklebur (Xanthium strumarium).
50%

Lab note: record XANST preemergence injury score 0-100 of `COc1sccc1S(=O)(=O)Nc1nc2c(OC)cnc(OC)n2n1` tested on cocklebur (Xanthium strumarium).
80%

Lab note: record XANST preemergence injury score 0-100 of `COc1cc(OC)n2nc(NS(=O)(=O)c3cscc3OC)nc2n1` tested on cocklebur (Xanthium strumarium).
60%

Lab note: record XANST preemergence injury score 0-100 of `COc1cc(OC)n2nc(NS(=O)(=O)c3c(OC)csc3Cl)nc2n1` tested on cocklebur (Xanthium strumarium).
50%

Lab note: record XANST preemergence injury score 0-100 of `CCOc1cscc1S(=O)(=O)Nc1nc2nc(OC)cc(OC)n2n1` tested on cocklebur (Xanthium strumarium).
90%
